substrate: FN-B, recombinant human fibronectin extra domain B (EDB) as a single domain; experiment: ELISA; conditions: chain shown with the change; pre-coated human FN-B; detection with HRP-conjugated anti-S-tag antibody; parent: est. 100; read off a plot
Sequence (chain, as listed by the source): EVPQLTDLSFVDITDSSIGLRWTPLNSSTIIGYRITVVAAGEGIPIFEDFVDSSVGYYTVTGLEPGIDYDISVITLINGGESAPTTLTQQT
Listed below: percent of parent values for each entry.
Give just the numeric value; % need not be written.

PMCTQRKARIRLCRRDSDCTGACICRGNGYCG [Trx-MC-FN-010, Thioredoxin-A fusion of cystine-knot miniprotein MC-FN-010 N8A] ... 88
PMCAQRKNRIRLCRRDSDCTGACICRGNGYCG [Trx-MC-FN-010, Thioredoxin-A fusion of cystine-knot miniprotein MC-FN-010 T4A] ... 100
PMCTQRKNRIRLCRADSDCTGACICRGNGYCG [Trx-MC-FN-010, Thioredoxin-A fusion of cystine-knot miniprotein MC-FN-010 R15A] ... 61

Consider the record given below.
I have this binder here, PMCTQRKNAIRLCRRDSDCTGACICRGNGYCG [Trx-MC-FN-010, Thioredoxin-A fusion of cystine-knot miniprotein MC-FN-010 R9A] , and I need its recorded percent of parent. 5
